assay: Induction of mitochondrial uncoupling in rat L6 cells assessed as increase in oxygen consumption rate incubated for 90 mins by Seahorse XF analyzer based assay; format: mitochondria, Mitochondria
ASSAY_METRIC: pEC50
Recall that pEC50 is obtained by taking minus log10 of the concentration measured in molar.

Inquiry: Determine from records and report pEC50 for CCCCc1ccc(Nc2nc3nonc3nc2O)cc1
Reply text: 5.68

Inquiry: Find the measured pEC50 of Oc1nc2nonc2nc1Nc1ccc(OC(F)(F)F)c(F)c1 and report it.
Reply text: 5.54

Inquiry: Please look at this compound and report its pEC50: Oc1nc2nonc2nc1Nc1ccccc1OC(F)(F)F
Reply text: 5.15

Inquiry: Note pEC50 for the compound shown: CCCCCc1ccc(Nc2nc3nonc3nc2O)cc1
Reply text: 5.62

Inquiry: Report measured pEC50; entry is Oc1nc2nonc2nc1Nc1ccc(C(F)(F)F)c(F)c1
Reply text: 4.94

Inquiry: Return reported pEC50. Input compound: Oc1nc2nonc2nc1NC(c1ccccc1)c1ccccc1
Reply text: 4.42

Inquiry: Tell me pEC50 reported for Oc1nc2nonc2nc1Nc1ccc(C(F)(F)F)cc1
Reply text: 4.98

Inquiry: For the compound CC(C)(C)c1cccc(Nc2nc3nonc3nc2O)c1 , give its reported pEC50.
Reply text: 5.66

Inquiry: // fetch pEC50 given entry Oc1nc2nonc2nc1Nc1ccc(C(O)(C(F)(F)F)C(F)(F)F)cc1
Reply text: 4.47

Inquiry: Tell us which pEC50 value is on record for Oc1nc2nonc2nc1Nc1ccc(OC(F)F)cc1
Reply text: 4.69

Inquiry: Let me know recorded pEC50 for Cc1cc(OC(F)(F)F)ccc1Nc1nc2nonc2nc1O , thanks.
Reply text: 5.34

Inquiry: Supply recorded pEC50 for Oc1nc2nonc2nc1Nc1ccc(OC(F)(F)F)cc1Cl here.
Reply text: 5.85

Where do the numbers come from? From ChEMBL document CHEMBL4602728.
